- Target desc: RING1B-BMI1 (Homo sapiens)
- Experiment description: KD classes of Table A (direct binding to Ring1B-Bmi1)
- Applied conditions: class given in Table A
pKd: −log10 of the molar value.
Measurement kind: pKd

Below, each entry is followed by its recorded pKd result.
{"Molecule": "Cc1cc(-c2c(C(=O)O)[nH]c(-c3cc(F)cc4[nH]ccc34)c2C(C)C)c2cc[nH]c2c1", "Reported result": "> 4.70"}
{"Molecule": "CC(C)c1c(-c2cccc3[nH]ccc23)c(C(=O)O)n2c1-c1cc(F)cc3ccn(c13)[C@H](C)C2", "Reported result": "> 4.70"}

Give me measured pKd, please, for this molecule: C#CCOCCOCCOCCC(=O)NCCc1c[nH]c2cc(F)cc(-c3[nH]c(C(=O)O)c(-c4c(Cl)ccc5[nH]ccc45)c3C(C)C)c12
> 4.70

Give reported pKd value for Cn1c(C(=O)O)ccc1-c1cccc2[nH]ccc12
< 4.00

In one line, give reported pKd of the entry CCC(C)c1c(-c2cccc3[nH]ccc23)[nH]c(C(=O)O)c1-c1cccc2[nH]ccc12 (centres unmarked) .
> 4.70

---

- Target desc: RING1B-BMI1 (Homo sapiens)
- Experiment description: KD classes of Table A (direct binding to Ring1B-Bmi1)
- Applied conditions: class given in Table A
Measurement kind: Kd

{"Chemical structure": "CCc1c(-c2cccc3[nH]ccc23)[nH]c(C(=O)O)c1-c1ccc2cc[nH]c2c1", "Reported result": "< 20 µM"}
{"Chemical structure": "CCc1c(-c2cccc3[nH]ccc23)[nH]c(C(=O)O)c1Cc1ccccc1", "Reported result": "20 to 50 µM"}

Please give the documented Kd of CC(C)c1c(-c2cc(F)cc3[nH]ccc23)[nH]c(CS(C)(=O)=O)c1-c1cccc2[nH]ccc12
< 20 µM

Recall and state the measured Kd for CC(C)c1c(-c2ccc3[nH]ccc3c2)[nH]c(C(=O)O)c1-c1c(Cl)ccc2[nH]ccc12 .
< 20 µM

---

- Target desc: RING1B-BMI1 (Homo sapiens, UniProt Q99496)
- Experiment description: KD classes of Table A (direct binding to Ring1B-Bmi1)
- Applied conditions: class given in Table A
Measurement kind: Kd

{"Compound": "Cc1c(-c2cccc3[nH]ccc23)[nH]c(C(=O)O)c1-c1ccccc1Cl [compound 93]", "Kd": "50 to 100 µM"}
{"Compound": "CC(C)c1c(-c2cc(F)cc3[nH]cc(CCNC(=O)CCCCCNC(=O)c4ccc5c(c4)C(=O)OC54c5ccc(O)cc5Oc5cc(O)ccc54)c23)[nH]c(C(=O)O)c1-c1c(Cl)ccc2[nH]ccc12 [compound 70]", "Kd": "< 20 µM"}
{"Compound": "CC(C)Cc1cc2c(-c3c(C(=O)O)[nH]c(-c4cc(F)cc5[nH]ccc45)c3C(C)C)cccc2[nH]1 [compound 202]", "Kd": "< 20 µM"}

Consider the additional compound presented here.
Read the entry CC(C)c1c(-c2cc(Cl)cc3[nH]ccc23)[nH]c(C(=O)O)c1-c1c(Cl)ccc2[nH]ccc12 [compound 13] and write its reported Kd.
< 20 µM

---

Overview of reported pKd across a group of compounds:
- Target desc: UniProt:Q99496
- Sequence (Q99496 1-336): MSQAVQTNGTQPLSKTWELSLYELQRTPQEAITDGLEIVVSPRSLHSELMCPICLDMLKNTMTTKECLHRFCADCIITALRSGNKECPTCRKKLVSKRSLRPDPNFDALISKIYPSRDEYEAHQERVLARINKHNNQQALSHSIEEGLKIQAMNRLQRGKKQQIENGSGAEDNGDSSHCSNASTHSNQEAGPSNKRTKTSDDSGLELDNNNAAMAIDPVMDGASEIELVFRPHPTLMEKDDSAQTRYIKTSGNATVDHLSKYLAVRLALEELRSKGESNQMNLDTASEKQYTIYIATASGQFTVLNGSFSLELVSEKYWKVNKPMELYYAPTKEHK
- Sequence (P35226 1-326 partner): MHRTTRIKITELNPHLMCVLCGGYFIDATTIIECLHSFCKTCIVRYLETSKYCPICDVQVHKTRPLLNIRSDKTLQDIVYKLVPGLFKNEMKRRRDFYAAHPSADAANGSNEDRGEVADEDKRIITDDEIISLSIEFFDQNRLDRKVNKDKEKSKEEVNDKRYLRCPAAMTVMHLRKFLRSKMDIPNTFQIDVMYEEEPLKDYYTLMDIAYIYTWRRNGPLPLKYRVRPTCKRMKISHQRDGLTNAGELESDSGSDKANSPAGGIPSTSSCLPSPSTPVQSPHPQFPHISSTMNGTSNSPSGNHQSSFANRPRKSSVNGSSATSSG
- Experiment description: KD classes of Table A (direct binding to Ring1B-Bmi1)
- Applied conditions: class given in Table A
pKd: −log10 of the molar value.

{"Compound": "CCc1c(-c2c(C)ccc3[nH]ccc23)[nH]c(C(=O)O)c1-c1c(Cl)ccc2[nH]ccc12 [compound 6]", "Reported result": "> 4.70"}
{"Compound": "O=C(O)c1ccc(-c2cccc(Oc3ccccc3)c2)[nH]1 [compound 139]", "Reported result": "< 4.00"}
{"Compound": "CCc1c(-c2cccc3[nH]ccc23)[nH]c(C(=O)O)c1-c1cccc(C)c1 [compound 99]", "Reported result": "4.00 to 4.30"}
{"Compound": "CC(C)c1c(-c2cc(F)cc3[nH]ccc23)[nH]c(CCS(N)(=O)=O)c1-c1cccc2[nH]ccc12 [compound 221]", "Reported result": "> 4.70"}
{"Compound": "NCCn1ccc2c(-c3ccc(C(=O)O)[nH]3)cccc21 [compound 153]", "Reported result": "< 4.00"}

Using known records, supply pKd for COc1ccc(-c2cc3c(-c4c(C(=O)O)[nH]c(-c5cc(F)cc6[nH]ccc56)c4C(C)C)ccnc3[nH]2)cc1 [compound 252]
> 4.70
